B1: Caulobacter ParB omega fusion; a variant is named by its letters at X, in order, B8GW30 (parent)
chain: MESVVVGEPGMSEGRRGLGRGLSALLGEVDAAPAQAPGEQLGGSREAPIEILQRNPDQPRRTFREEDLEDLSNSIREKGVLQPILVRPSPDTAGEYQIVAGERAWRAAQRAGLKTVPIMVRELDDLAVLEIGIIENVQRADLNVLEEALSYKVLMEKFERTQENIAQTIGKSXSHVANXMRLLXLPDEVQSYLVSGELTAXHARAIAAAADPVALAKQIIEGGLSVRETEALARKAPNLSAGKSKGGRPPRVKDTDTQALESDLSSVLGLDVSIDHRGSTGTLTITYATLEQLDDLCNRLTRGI

variants of: B1; experiment: one-hybrid fitness for binding parS DNA (scaled: cognate 1, non-cognate 0); higher = stronger binding; settings: with parS DNA site
In all, about 81,000 sequences were measured (“one-hybrid fitness for binding parS DNA”: median about -0.17, highest 2% from about 0.51 on). This is one part of a sample in which the highest values are shown more often than they occur.
assay_readout: one-hybrid fitness for binding parS DNA

1. RIDA: 0.55
2. RLFM: 0.369
3. NRFA: ≤ 0.2
4. RHWT: 0.692
5. ALPV: ≤ 0.2
6. RTKS: 0.815
7. RHVS: 0.927
8. QALV: ≤ 0.2
9. RTKH: 0.439
10. NIHV: ≤ 0.2
11. GTYV: ≤ 0.2
12. RTVN: 0.387
13. NAVT: ≤ 0.2
14. VTPY: ≤ 0.2
15. RISK: ≤ 0.2
16. RLWR: ≤ 0.2
17. CANR: ≤ 0.2
18. RHYT: 0.806
19. RSSK: ≤ 0.2
20. ESHS: ≤ 0.2
21. RMTE: ≤ 0.2
22. RRAA: 0.724
23. RTSY: 0.489
24. DRFA: ≤ 0.2
25. YTPS: ≤ 0.2
26. RTVP: ≤ 0.2
27. PAVK: ≤ 0.2
28. NRNI: ≤ 0.2
29. KQMS: ≤ 0.2
30. RMWG: 0.991
31. FTDC: ≤ 0.2
32. ARCH: ≤ 0.2
33. KRDI: ≤ 0.2
34. RTSG: 1
35. RLAD: ≤ 0.2
36. RTKD: ≤ 0.2
37. RHKS: 0.777
38. GKGS: ≤ 0.2
39. PETH: ≤ 0.2
40. RLAN: 0.442
41. RLFG: 0.991
42. RHWK: ≤ 0.2
43. PFLV: ≤ 0.2
44. RSSG: 0.993
45. RISY: 0.477
46. NRAA: ≤ 0.2
